// values below are reported switch fluorescence ratio
System: ATP;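 note: ATP exposure 15 min at 22 °C before imaging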
Test: switch fluorescence ratio, 500 uM ATP over buffer (Cy3 cluster intensity, sum of 5 cycles each) (fold (ratio)); higher = stronger signal-on switching upon ATP binding; sequences stand for … in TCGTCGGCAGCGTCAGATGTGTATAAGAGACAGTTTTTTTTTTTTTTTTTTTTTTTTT…TC
Details: aptamer strand: ATP DNA aptamer (quencher-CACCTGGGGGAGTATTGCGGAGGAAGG + anchor), 100 nM annealed; ATP concentration: 500 uM
API note: the answer field is a bare number with no unit suffix.

chain=GGGGGGCGGG recorded_value=1.03
chain=AAAAAGGCTA recorded_value=1.03
chain=TGCACGTTTT recorded_value=1.09
chain=TGTGGGAGGT recorded_value=0.957
chain=CCAGCCCGGG recorded_value=1.01
chain=ATGTAGTGGC recorded_value=0.995
chain=CAGGGTAGTG recorded_value=1.01
chain=GGTTTCATAG recorded_value=0.976

Request: I would be grateful if you could share the reported switch fluorescence ratio for ACCTGGCCTG .
Response: 0.999

Request: Also AGGTGGGGTC ?
Response: 0.984

Request: Also TTGATTTCGA ?
Response: 1.06

Request: Also GTCGTTGTTC ?
Response: 1.03

Request: Also CTCAGTTATG ?
Response: 1.02

Request: Also TCTGGTTGCG ?
Response: 1

====

System: ATP;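 note: ATP exposure 15 min at 22 °C before imaging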
Experiment: switch fluorescence ratio, 500 uM ATP over buffer (Cy3 cluster intensity, sum of 5 cycles each) (fold (ratio)); higher = stronger signal-on switching upon ATP binding; sequences stand for … in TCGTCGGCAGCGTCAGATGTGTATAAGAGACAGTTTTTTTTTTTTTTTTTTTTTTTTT…TC
Conditions: aptamer strand: ATP DNA aptamer (quencher-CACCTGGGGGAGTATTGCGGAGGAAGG + anchor), 100 nM annealed; ATP concentration: 500 uM
// values below are reported switch fluorescence ratio
API note: the answer field is a bare number with no unit suffix.

chain=CCAATGTCTC recorded_value=1.08

Request: What is its switch fluorescence ratio for ATP? Entry: CGGTTATAGG
Response: 0.967

Request: Also TCGGACGACC ?
Response: 1.15

Request: Also CGCTTTAATA ?
Response: 1.07

Request: Also TATTTAAGTG ?
Response: 1.04

====

// values below are reported switch fluorescence ratio
Test system: ATP;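 note: ATP exposure 15 min at 22 °C before imaging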
Test: switch fluorescence ratio, 500 uM ATP over buffer (Cy3 cluster intensity, sum of 5 cycles each) (fold (ratio)); higher = stronger signal-on switching upon ATP binding; sequences stand for … in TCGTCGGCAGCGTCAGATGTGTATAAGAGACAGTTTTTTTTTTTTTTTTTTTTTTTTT…TC
Conditions: aptamer strand: ATP DNA aptamer (quencher-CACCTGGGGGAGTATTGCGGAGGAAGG + anchor), 100 nM annealed; ATP concentration: 500 uM
API note: the answer field is a bare number with no unit suffix.

# annotated cases, reported switch fluorescence ratio shown
chain=TGGTAAAGTA target=ATP experimental_endpoint="switch fluorescence ratio" recorded_value=0.991
chain=TTTGTGGAGT target=ATP experimental_endpoint="switch fluorescence ratio" recorded_value=1
chain=TTGAGTTTTT target=ATP experimental_endpoint="switch fluorescence ratio" recorded_value=0.987
chain=ATCTGAATGG target=ATP experimental_endpoint="switch fluorescence ratio" recorded_value=1.12
chain=TGATGTTACC target=ATP experimental_endpoint="switch fluorescence ratio" recorded_value=1.06

Request: What is its switch fluorescence ratio for ATP? Entry: ACTGGGTTGG
Response: 0.992

Request: Also ATAAAATATT ?
Response: 0.998

Request: Also TTGGCCGTAC ?
Response: 1.03

Request: Also ATAAGGTTGT ?
Response: 0.977

Request: Also TATGTATCCG ?
Response: 1.03

Request: Also GCCGTGTGAT ?
Response: 0.986

Request: Also TTATTTCGGG ?
Response: 0.973

Request: Also GGGGGGATGT ?
Response: 0.993

Request: Also CCTTGGGACG ?
Response: 0.992

Request: Also TCCCTTTGGC ?
Response: 1.01

====

Tested on: ATP;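 note: ATP exposure 15 min at 22 °C before imaging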
Test: switch fluorescence ratio, 500 uM ATP over buffer (Cy3 cluster intensity, sum of 5 cycles each) (fold (ratio)); higher = stronger signal-on switching upon ATP binding; sequences stand for … in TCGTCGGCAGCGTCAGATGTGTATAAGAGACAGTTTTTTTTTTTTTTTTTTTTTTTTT…TC
Conditions: aptamer strand: ATP DNA aptamer (quencher-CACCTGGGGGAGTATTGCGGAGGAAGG + anchor), 100 nM annealed; ATP concentration: 500 uM
switch fluorescence ratio below 1 gives criterion not met; switch fluorescence ratio at or above it gives criterion met.

chain=TGGCTTTGCT target=ATP label_class="criterion not met"

Request: Assess whether reported switch fluorescence ratio for TATTCGCATC sits at 1 or higher.
Response: criterion met

====

Tested on: ATP;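 note: ATP exposure 15 min at 22 °C before imaging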
Assay: switch fluorescence ratio, 500 uM ATP over buffer (Cy3 cluster intensity, sum of 5 cycles each) (fold (ratio)); higher = stronger signal-on switching upon ATP binding; sequences stand for … in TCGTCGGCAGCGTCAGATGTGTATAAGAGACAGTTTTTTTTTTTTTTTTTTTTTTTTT…TC
Conditions: aptamer strand: ATP DNA aptamer (quencher-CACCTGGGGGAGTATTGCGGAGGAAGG + anchor), 100 nM annealed; ATP concentration: 500 uM
// values below are reported switch fluorescence ratio
API note: the answer field is a bare number with no unit suffix.

chain=ACAAAGATGA recorded_value=0.973
chain=AGATTCTGGG recorded_value=0.971
chain=CTGTGGATGG recorded_value=1.01
chain=TGGGGATATA recorded_value=1.03
chain=TTTATAAAAT recorded_value=0.987

Could you now consider this next sequence?
Request: I would be grateful if you could share the reported switch fluorescence ratio for CCATCGTAAC .
Response: 2.28

====

Test system: ATP;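 note: ATP exposure 15 min at 22 °C before imaging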
Experiment: switch fluorescence ratio, 500 uM ATP over buffer (Cy3 cluster intensity, sum of 5 cycles each) (fold (ratio)); higher = stronger signal-on switching upon ATP binding; sequences stand for … in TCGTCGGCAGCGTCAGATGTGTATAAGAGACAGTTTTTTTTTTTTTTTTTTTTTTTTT…TC
Settings: aptamer strand: ATP DNA aptamer (quencher-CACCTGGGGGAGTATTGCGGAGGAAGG + anchor), 100 nM annealed; ATP concentration: 500 uM
experimental_endpoint: switch fluorescence ratio
API note: the answer field is a bare number with no unit suffix.

# annotated cases, reported switch fluorescence ratio shown
chain=AGTGCAGAGA target=ATP recorded_value=0.989
chain=TTTATGGGCG target=ATP recorded_value=1.34
chain=AAATACGGTG target=ATP recorded_value=1.17
chain=TTGGGGATTG target=ATP recorded_value=0.989
chain=GGGTAAGTAT target=ATP recorded_value=0.958
chain=TGATAATCGG target=ATP recorded_value=0.997
chain=GGGTTGGCTG target=ATP recorded_value=0.989
chain=GGGGGGCCGT target=ATP recorded_value=0.957

Request: I would be grateful if you could share the reported switch fluorescence ratio for GTTGCCGGTT .
Response: 1.03

Request: Also CGGGGGAGAC ?
Response: 0.971

Request: Also TATTTGTTGC ?
Response: 1.03

Request: Also GAGGATTGAC ?
Response: 1

Request: Also GCATTGGTTC ?
Response: 1.02

Request: Also TTTTAACCCC ?
Response: 1.26

Request: Also TTTTTAGTGT ?
Response: 1.01

====

Test system: ATP;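 note: ATP exposure 15 min at 22 °C before imaging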
Experiment: switch fluorescence ratio, 500 uM ATP over buffer (Cy3 cluster intensity, sum of 5 cycles each) (fold (ratio)); higher = stronger signal-on switching upon ATP binding; sequences stand for … in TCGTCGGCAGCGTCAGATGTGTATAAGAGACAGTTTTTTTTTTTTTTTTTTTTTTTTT…TC
Settings: aptamer strand: ATP DNA aptamer (quencher-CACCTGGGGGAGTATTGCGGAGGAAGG + anchor), 100 nM annealed; ATP concentration: 500 uM
// values below are reported switch fluorescence ratio
API note: the answer field is a bare number with no unit suffix.

# annotated cases, reported switch fluorescence ratio shown
chain=GAGGGACTTG recorded_value=0.98
chain=GAATAAGTCC recorded_value=1.04
chain=TCGCCGTTCT recorded_value=0.99
chain=TTGGTAAGCG recorded_value=1.02
chain=ATTATTAACG recorded_value=0.993
chain=AGTGGAGGGC recorded_value=1.03
chain=ACGGTGGTCG recorded_value=0.913
chain=GGGTAACGGT recorded_value=0.98
chain=TTTCTTAGTG recorded_value=0.962
chain=AGGATGACAG recorded_value=0.998

Request: What is its switch fluorescence ratio for ATP? Entry: AAGATTTGAC
Response: 1

Request: Also GAGGCTGGTA ?
Response: 0.98

Request: Also ATTTGTTGAT ?
Response: 1

Request: Also CTGATCAGCA ?
Response: 1.03

Request: Also TCAATCGGGT ?
Response: 0.995

Request: Also TGGCCAGCTC ?
Response: 0.975

Request: Also GATCCGGCTT ?
Response: 1.04

Request: Also CCGAATCCAG ?
Response: 1.11

Request: Also ATAACGCGGT ?
Response: 0.997

Request: Also CAGGTTGTGT ?
Response: 0.99

Request: Also GGGAAGGTTT ?
Response: 1.01

Request: Also TCGAGGGGTT ?
Response: 0.993

Request: Also TGTAGCATCT ?
Response: 1.08

Request: Also GTTGCGTTTT ?
Response: 0.985

Request: Also TGTATATGG ?
Response: 0.958

Request: Also CTGATAAAGT ?
Response: 0.992

Request: Also GCATAAGGGC ?
Response: 0.959

Request: Also TATTTAGATG ?
Response: 1.01
